- target-under-test: AuroraA-TPX2 (Homo sapiens, UniProt O14965)
- Construct: 20 μL of AuroraA-TPX2 KD GST for a final volume of about 41 μL; GST
- assay-protocol: AuroraA-TPX2 Homogeneous Time Resolved Fluorescent (HTRF) kinase assay
- Assay type: biochemical
- conditions-used: average; read-out: AurA_IC50_IP (uM Avg)
readout-type: log10 IC50 (log10 of the value in µM)
Please note: log10 values; quantity IC50; unit µM.

log10 IC50 lookup needed for `COc1cc2nccc(Oc3ccc(Nc4nnc(-c5cc(C)ccn5)c5ccccc45)cc3)c2cn1` , thanks.
-1.39

Also, `COc1cc2nncc(Oc3ccc(Nc4nnc(-c5ccccc5)c5ccccc45)cc3)c2cc1OC` please.
0.21

Also, `COc1cnc2c(Oc3ccc(Nc4nnc(-c5ccc(Cl)c(C)c5)c5ccccc45)cc3)ccnc2c1` please.
-1.57

Also, `COc1cc2nccc(Sc3ccc(Nc4nnc(-c5ccccc5)c5ccccc45)cc3)c2nc1OC` please.
-0.61

Also, `COCCOc1cc2nccc(Oc3ccc(Nc4nnc(-c5ccccc5)c5ccccc45)cc3)c2cc1OC` please.
-1.89

Also, `Clc1ccc(-c2nnc(Nc3ccc(Oc4ccnc5ccsc45)cc3)c3ccccc23)cc1` please.
-1.03

Also, `COc1cc2nccc(Oc3ccc(Nc4nnc(-c5cc(C)ccn5)c5ccccc45)cc3)c2cc1OC` please.
-1.24

Also, `COc1cnc2c(Oc3ccc(Nc4nnc(-c5nc(C)cs5)c5ccccc45)cc3)ccnc2c1` please.
-1.89

----------
- target-under-test: AuroraA-TPX2 (Homo sapiens, UniProt O14965)
- Construct: 20 μL of AuroraA-TPX2 KD GST for a final volume of about 41 μL; GST
- assay-protocol: AuroraA-TPX2 Homogeneous Time Resolved Fluorescent (HTRF) kinase assay
- Type: biochemical
- conditions-used: average; read-out: AurA_IC50_IP (uM Avg)
readout-type: IC50
Give the figure together with its unit, number first.

IC50 lookup needed for Cc1csc(-c2nnc(Nc3ccc(Sc4ccnc5cc(C(=O)N6CCOCC6)sc45)cc3)c3ccccc23)c1 [compound 312] , thanks.
0.022 µM

Also, Cc1csc(-c2nnc(Nc3ccc(Sc4ccnc5ccoc45)cc3)c3ccccc23)c1 [compound 468] please.
0.129 µM

Also, COc1cnc2c(Oc3ccc(Nc4nnc(-c5ccc(C)nc5)c5ccccc45)cc3)ccnc2c1 [compound 268] please.
0.064 µM

Also, COc1cc2ncnc(Oc3ccc(Nc4nnc(-c5ccccc5)c5ccccc45)cc3)c2cc1OC [compound 98] please.
0.016 µM

Also, COCCn1ccc2nccc(Sc3ccc(Nc4nnc(-c5cc(C)cs5)c5ccccc45)cc3)c21 [compound 470] please.
0.041 µM

Also, N#Cc1ccc2c(Oc3ccc(Nc4nnc(-c5ccc(C(F)(F)F)cc5)c5ccccc45)cc3)ccnc2c1 [compound 147] please.
0.025 µM

Also, COc1cnc2c(Oc3ccc(Nc4nnc(-c5ccc(F)c(F)c5)c5ccccc45)cc3)ccnc2c1 [compound 214] please.
0.085 µM

Also, COc1cnc2c(Oc3ccc(Nc4nnc(-c5cccc(COC(C)=O)n5)c5ccccc45)cc3)ccnc2c1 [compound 132] please.
0.022 µM

----------
- target-under-test: AuroraB (Homo sapiens)
- Construct: 20 μL of AuroraB FL H is for a final volume of 41 μL; His
- Sequence (Q96GD4 whole entry): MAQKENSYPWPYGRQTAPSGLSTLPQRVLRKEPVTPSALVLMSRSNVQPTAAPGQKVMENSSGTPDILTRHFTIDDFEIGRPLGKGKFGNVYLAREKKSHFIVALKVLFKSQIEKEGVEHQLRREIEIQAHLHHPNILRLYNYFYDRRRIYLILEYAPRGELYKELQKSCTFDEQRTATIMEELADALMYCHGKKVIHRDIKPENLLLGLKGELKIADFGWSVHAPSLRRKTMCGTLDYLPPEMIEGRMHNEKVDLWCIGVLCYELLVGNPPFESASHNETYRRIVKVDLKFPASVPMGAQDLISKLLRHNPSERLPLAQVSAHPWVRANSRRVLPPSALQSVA
- assay-protocol: AuroraB Homogeneous Time Resolved Fluorescent (HTRF) kinase assay
- Type: biochemical
- conditions-used: average; read-out: AurB_IC50_IP (uM Avg)
readout-type: IC50 (µM)
State the answer as a number, implicitly in µM.

IC50 lookup needed for COc1cnc2c(Oc3ccc(Nc4nnc(-c5ccc(Cl)c(OCCS(C)(=O)=O)c5)c5ccccc45)cc3)ccnc2c1 [Example 394] , thanks.
0.009

Also, N#Cc1ccc2c(Oc3ccc(Nc4nnc(-c5ccc(Cl)c(C#N)c5)c5ccccc45)cc3)ccnc2c1 [compound 231] please.
0.032

Also, N#Cc1ccc2nccc(Oc3ccc(Nc4nnc(-c5ccccc5)c5ccccc45)cc3)c2c1 [compound 592] please.
0.022

Also, FC(F)Oc1cnc2c(Sc3ccc(Nc4nnc(-c5ccccc5)c5ccccc45)cc3)ccnc2c1 [Example 387] please.
0.048

Also, COc1cnc2c(Oc3ccc(Nc4nnc(-c5cc(Cl)cs5)c5ccccc45)cc3)ccnc2c1 [compound 316] please.
0.023

Also, COc1cnc2c(Sc3ccc(Nc4nnc(N5CCN(C(C)=O)CC5)c5ccccc45)cc3)ccnc2c1 [compound 608] please.
0.022

Also, Clc1ccc(-c2nnc(Nc3ccc(Oc4ncnc5ccccc45)cc3)c3ccccc23)cc1 [compound 562] please.
0.006

----------
- target-under-test: AuroraA-TPX2 (Homo sapiens)
- Construct: 20 μL of AuroraA-TPX2 KD GST for a final volume of about 41 μL; GST
- Sequence (O14965 133-383 limits assumed): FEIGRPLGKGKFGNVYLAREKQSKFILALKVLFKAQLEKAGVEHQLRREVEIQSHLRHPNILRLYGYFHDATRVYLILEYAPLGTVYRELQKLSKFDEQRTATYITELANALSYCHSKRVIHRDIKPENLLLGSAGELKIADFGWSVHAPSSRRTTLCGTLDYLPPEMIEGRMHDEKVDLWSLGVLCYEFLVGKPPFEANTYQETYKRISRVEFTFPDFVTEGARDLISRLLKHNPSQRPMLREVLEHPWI
- Sequence (Q9ULW0 1-43 partner limits assumed): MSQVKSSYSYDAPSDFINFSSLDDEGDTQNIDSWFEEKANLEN
- assay-protocol: AuroraA-TPX2 Homogeneous Time Resolved Fluorescent (HTRF) kinase assay
- Assay type: biochemical
- conditions-used: average; read-out: AurA_IC50_IP (uM Avg)
readout-type: log10 of IC50 (log10 of the value in µM)
Please note: log10 values; quantity IC50; unit µM.

Param readout = log10 of IC50; param system = AuroraA-TPX2 (Homo sapiens); param query = COc1cnc2c(N(C)c3ccc(Nc4nnc(-c5cc(C)cs5)c5ccccc45)cc3)ccnc2c1 [compound 247] ; response: value
-0.66

Also, Clc1ccc(-c2nnc(Nc3ccc(Oc4ccnc5cccnc45)cc3)c3ccccc23)cc1 [compound 448] please.
-1.41

Also, COc1cnc2c(Oc3ccc(Nc4nnc(-c5cc(CF)cs5)c5ccccc45)cc3)ccnc2c1 [Example 408] please.
-1.62

Also, Cc1csc(-c2nnc(Nc3ccc(Oc4ccnc5cccnc45)cc3)c3cc(F)c(F)cc23)c1 [compound 510] please.
-0.49

Also, COc1cc(OC)c2c(Oc3ccc(Nc4nnc(-c5ccc(Cl)cc5)c5ccccc45)cc3)ncnc2c1 [compound 590] please.
-1.57

Also, COc1cnc2c(Oc3ccc(Nc4nnc(-c5ccc6c(c5)OCO6)c5ccccc45)cc3)ccnc2c1 [Example 165] please.
-2.05

Also, COc1cc2c(Oc3ccc(Nc4nnc(-c5ccccc5)c5ccccc45)cc3)ccnc2cc1OCc1ccccc1 [compound 326] please.
-1.59

Also, COc1ccc(-c2nnc(Nc3ccc(Sc4ccnc5cccnc45)cc3)c3ccccc23)cn1 [compound 509] please.
-0.50

Also, COc1cc(OC)c2c(Sc3ccc(Nc4nnc(-c5cc(C)cs5)c5ccccc45)cc3)ccnc2c1 [compound 439] please.
0.22

Also, COc1cnc2c(Oc3ccc(Nc4nnc(-c5ccc(C)s5)c5ccccc45)cc3)ccnc2c1 [compound 138] please.
-1.74

Also, COc1cnc2c(Sc3ccc(Nc4nnc(-c5cscn5)c5ccccc45)cc3)ccnc2c1 [compound 506] please.
-0.13

Also, CCc1cc(-c2ccccc2)nnc1Nc1ccc(Oc2ccnc3cc(C(N)=O)ccc23)cc1 [compound 49] please.
-1.68

Also, CCc1cc(-c2ccc(C)cc2)nnc1Nc1ccc(Oc2ccnc3cc(OC)cnc23)cc1 [compound 199] please.
-1.57

Also, COc1cccc(-c2nnc(Nc3ccc(Oc4ccnc5ccccc45)c(F)c3)c3ccccc23)n1 [compound 186] please.
-1.23

----------
- target-under-test: AuroraA-TPX2 (Homo sapiens, UniProt O14965)
- Construct: 20 μL of AuroraA-TPX2 KD GST for a final volume of about 41 μL; GST
- assay-protocol: AuroraA-TPX2 Homogeneous Time Resolved Fluorescent (HTRF) kinase assay
- Type: biochemical
- conditions-used: average; read-out: AurA_IC50_IP (uM Avg)
readout-type: IC50 (µM)
State the answer as a number, implicitly in µM.

IC50 lookup needed for N#Cc1cc2nccc(Sc3ccc(Nc4nnc(-c5ccc(Cl)cc5)c5ccccc45)cc3)c2s1 [compound 351] , thanks.
0.008

Also, COc1cnc2c(Oc3ccc(Nc4nnc(-c5ccc6c(ccn6C)c5)c5ccccc45)cc3)ccnc2c1 [compound 204] please.
0.026

Also, COc1cnc2c(Oc3ccc(Nc4nnc(-c5cccc(C)n5)c5ccccc45)cn3)ccnc2c1 [compound 128] please.
0.099

Also, Cc1ccc(-c2nnc(Nc3ccc(Sc4ccnc5cc(C#N)oc45)cc3)c3ccccc23)cc1N [compound 490] please.
0.09

Also, COc1ccc2c(Sc3ccc(Nc4nnc(-c5ccc(Cl)cc5)c5ccccc45)cc3)ccnc2c1 [compound 334] please.
0.049

Also, COc1cnc2c(Oc3ccc(Nc4nnc(-c5ccc6c(c5)OC(F)(F)O6)c5ccccc45)cc3)ccnc2c1 [compound 291] please.
0.031

Also, Cc1noc(-c2cc3nccc(Oc4ccc(Nc5nnc(-c6ccccc6)c6ccccc56)cc4)c3s2)n1 [compound 288] please.
0.302

Source listed as patent US8557816B2.
